The entries below are paired with their reported boiling point.
Response body: numeric value in °C, unit text excluded.

Consider the reported boiling point for these compounds:
compound	unit.abbrev	reported.value
CCCCCCCCCCCCCCCC(=O)O	°C	352
FC(F)Br	°C	-15.5
CC1CCOC1 (centres undefined)	°C	86.5

Here is another compound to look at.
Ask: Entry under review: CC(C)CON=O . Reported boiling point?
Result: 67

###

The threshold is inclusive: boiling point of exactly 200 °C counts as 1.0; values below receive 0.0.

compound	label.class
BrCCCBr	0.0
Cc1c[nH]cn1	1.0

Ask: Quick check: does O=Cc1cc(Cl)ccc1Cl have boiling point greater than or equal to 200 °C?
Result: 1.0

Ask: Hi team, for CCc1ccc(N)cc1 , is the recorded boiling point at or above 200 °C?
Result: 1.0

Ask: Determine whether this compound has boiling point no lower than 200 °C: CCc1cc(CC)c(CC)c(CC)c1CC
Result: 1.0

Ask: Identify whether the reported boiling point of the following compound is 200 °C or greater: CCC=C(C)C
Result: 0.0

Ask: hey, is boiling point for this one >= 200 °C? N#C/C=C/C#N
Result: 0.0

###

Consider the following compounds and their measured melting point readings.
Note: unit °C is implicit; provide only the numeric part.

O=CC=Cc1ccc([N+](=O)[O-])o1 118

Ask: Suppose we examine the compound Cc1cc(O)c(C)c(C)c1C ; what melting point value has been reported?
Result: 85.3

Ask: Item COc1ccc(C=O)cc1 has what recorded melting point?
Result: 0

Ask: Entry under review: CCCCCCCC/C=C\CCCCCCCC(=O)OCC . Reported melting point?
Result: -13.1

Ask: Query: melting point; subject: Nc1cc(N)cc(C(=O)O)c1
Result: 228

Ask: Can you look up the measured melting point of O=C(Cl)c1ccccc1F for me?
Result: 4

Ask: Form field: reported melting point of NC(=O)N1c2ccccc2C=Cc2ccccc21
Result: 190

Ask: Fill in: melting point of O=CC=O is ___
Result: 15

###

measured.endpoint: boiling point (°C)
Your answer should be a plain number; it is taken to be in °C.

Ask: Could you tell me which boiling point is on file for CCOC(=O)c1ccc(OCC)cc1 ?
Result: 275

###

measured.endpoint: boiling point (°C)
Numeric answer only, unit °C assumed.

compound	unit.abbrev	boiling point
C1CSCS1	°C	175
CC(=O)/C(C)=N/O	°C	186
CCCCC(C)(C)O	°C	143
O=[N+]([O-])c1ccc(O)cc1	°C	279
CC(c1ccccc1)C(C)(C)O (stereo unspecified)	°C	197

Moving on to another compound below.
Ask: Name the recorded boiling point for CCCCCCC(=O)CC .
Result: 190

###

measured.endpoint: melting point (°C)
Give a bare numeral; the unit °C is implied.

Answered examples (10):
CC(C)=C1OC(=O)N(c2cc(OC3CCCC3)c(Cl)cc2F)C1=O 104
CC1=C(O)C(=O)CC1 106
Nc1cnn(-c2ccccc2)c(=O)c1Cl 205
CC(=O)CC(=O)Nc1ccc(Cl)cc1 132
OCC(F)(F)C(F)(F)C(F)(F)C(F)(F)C(F)(F)C(F)(F)C(F)(F)C(F)F 56
CCCCOC(=O)CC(CC(=O)OCCCC)(OC(C)=O)C(=O)OCCCC -80
N#CC#N -27.9
CCCCOC(=O)c1ccccc1C(=O)O 73.5
CC(c1c(O)c2ccccc2oc1=O)c1c(O)c2ccccc2oc1=O 178
CCSC(=O)N(CC)C1CCCCC1 11.5

Ask: Could you share which melting point value was measured for CCCCNC(=O)c1ccc2cc(O)c(O)cc2c1 ?
Result: 194
